target: serotonin 5-HT2C receptor (Homo sapiens, UniProt P28335, I156V/I160V/N158S); test: cell-based; settings: CHO, read-out: ratio to maximum response by 5-HT
Sequence (P28335 33-458 I156V/N158S/I160V limits assumed): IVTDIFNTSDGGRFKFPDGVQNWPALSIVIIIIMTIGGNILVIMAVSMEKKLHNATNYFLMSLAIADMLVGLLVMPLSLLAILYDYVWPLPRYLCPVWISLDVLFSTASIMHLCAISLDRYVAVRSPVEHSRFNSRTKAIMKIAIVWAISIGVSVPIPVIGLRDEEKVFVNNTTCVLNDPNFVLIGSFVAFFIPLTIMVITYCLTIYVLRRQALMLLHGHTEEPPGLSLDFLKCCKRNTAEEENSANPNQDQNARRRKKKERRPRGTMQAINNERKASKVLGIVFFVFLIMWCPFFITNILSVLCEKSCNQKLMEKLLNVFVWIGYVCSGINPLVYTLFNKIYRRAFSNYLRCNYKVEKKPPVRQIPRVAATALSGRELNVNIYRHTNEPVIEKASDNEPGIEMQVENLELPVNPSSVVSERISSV
Counter-ions that a name gives are not always drawn.
OBSERVABLE: Emax
Put down the number, then write its unit next to it.

COc1ccc2c(c1)C(=O)N1CCNCC1CO2 (stereo not drawn) [Example 31, hydrochloride]: 93.8%
O=C1c2c(cccc2C(F)(F)F)OCC2CNCCN12 (stereo not drawn) [Example 42, hydrochloride]: 88.4%
Clc1ccc2c(c1)CN1CCNCC1CO2 (stereo not drawn) [Example 7, dihydrochloride]: 107%
O=C1c2c(Br)cccc2OCC2CNCCN12 (stereo not drawn) [Example 41, hydrochloride]: 96%

Okay, here is my list. What is Emax for each of these?
1. O=C1c2c(Cl)cccc2OCC2CNCCN12 (stereo not drawn) [Example 4, hydrochloride]
2. O=C1c2ccc(Cl)cc2OCC2CNCCN12 (stereo not drawn) [Example 5, hydrochloride]
3. c1ccc2c(c1)CN1CCNCC1CO2 (stereo not drawn) [Example 2, dihydrochloride]
4. Cc1cccc2c1OCC1CNCCN1C2=O (stereo not drawn) [Example 37, hydrochloride]
5. O=C1c2ccccc2OCC2CNCCN12 (stereo not drawn) [Example 1, hydrochloride]

94.6%
101%
116%
98.3%
114%

Items follow; give Emax for each.
1. O=C1c2cc(Cl)ccc2OCC2CNCCN12 (stereo not drawn) [Example 6, hydrochloride]
2. FC(F)(F)c1ccc2c(c1)CN1CCNCC1CO2 (stereo not drawn) [Example 9, dihydrochloride]
3. O=C1c2cc(C(F)(F)F)ccc2OCC2CNCCN12 (stereo not drawn) [Example 8, hydrochloride]

1: 99.4%; 2: 91.5%; 3: 96.5%

====

target: serotonin 5-HT2C receptor (Homo sapiens, UniProt P28335, I156V/I160V/N158S); assay: cell-based; settings: CHO, read-out: ratio to maximum response by 5-HT
Counter-ions that a name gives are not always drawn.
Can you tell me Emax for the items I'm about to list?
One number for each entry, in %.

Please report Emax for every entry that follows.
1. O=C1c2cccc(Cl)c2OCC2CNCCN12 (stereo not drawn) [Example 3, hydrochloride]
2. Cc1ccc2c(c1)C(=O)N1CCNCC1CO2 (stereo not drawn) [Example 13, hydrochloride]
3. O=C1c2cc(Br)ccc2OCC2CNCCN12 (stereo not drawn) [Example 10, hydrochloride]

98.2
96.9
107
